Assay: Solubility in simulated intestinal fluid
Assay type: physicochemical
Conditions: 0.5 wt % SIF
From the text: 1 compared to crystalline otenaproxesul in simulated intestinal fluid (SIF).

compound: COc1ccc2cc([C@H](C)C(=O)Oc3ccc(C(N)=S)cc3)ccc2c1 [crystalline otenaproxesul]
unit descriptor: µg/mL
solubility at 2 h: 51

The measurements presented in this section are drawn from patent US20260355142A1.
